Where do the numbers come from? From the nanobody polyreactivity screen of Harvey et al. (2022).

# EXPERIMENT NOTES: yeast display, Sf9 membrane polyspecificity reagent, FACS + sequencing; frameworks hold sequencing errors
EXPERIMENTAL READOUT: polyreactivity (PSR sort gate)

Below are worked cases with known answers.
QVQLVESGGGLVQAGGSLRLSCAASGIIFTANVMGWYRHAPGKERELDAVISLSGGITFYADSVKGRFTISRDNAKNTVYLQMNSLKPEDTAVYYCAAEPWYSWKTEEDYWGQGTQVTVTS low polyreactivity
PVQLVESGGGLVQAGGSLRLSWAASGRIFVVNAMGWYRQAPGKEREFLASITRGASTYADSVKGRFTISRDNAKNTVYLQMNSLKPEDTAVYYCSDAKRPQVVRYDWTKLEYWGQGTQVTVSS high polyreactivity
QVQLVESGGRLVQAGGSLRLSSAASGSTFYVYTMGWYRQAPGKEWELVAAISSGSSTNYADSVKGRFTISRDNAKNTVYLQMNSLQPEDTAVYYCAATRFSYVFPYRYDYWGQGTQVTVSS low polyreactivity
QVQLVESGGGLVQAGGSLRLSCAASGSIFYWYAMGWYRQAPGKEREFIADIDWSGGSTYYADSVKGRFTISRDNAKNTVYLQMNSLKPEDTAVYYCAAEARIDIGLYYLDSYYWGQGTQVTVSS high polyreactivity
QVQLVESGGGLVQAGGSLRLSCAASGSTFRYNAMGWYRQAPWKERELVAAITSGGSTYYADSVKGRFTISRDNAKNTVYLQMNSLKPEDTAVYYCAALWQSRWYKMDYWGQGTQVTVSS high polyreactivity
QVQLVESGGGLVQAGGSLRLSCAASGRIFAVNAMGWYRQAPGKERELVASIRWSGGSTYYADSVKGRFTISRDNAKNTVYLQMNSLKPEDTAVYYCAAVIYLWGQGTQVTVSS high polyreactivity
QVQLVESGGGLVQAGGSLRLSCAASGPIYTYAMGWYRHAPGKERELVAAISRRGGSTYYADSVKGRFTISRDNAKNTVYLQMNSLKPEDTAVYYCAKERSFGDGNFDYEYWGQGTQVTVSS high polyreactivity
QVQLVESGGGLVQAVGSLRLSCAASGSTLYRYALGWYRQAPGKARELDAAISSSGGSTYYADSVKGRFTISRDNAKNTVYLQMNSLKPEDTEVYYCARVARASGVRWYYYWGQGTQVTVSS high polyreactivity

# input What measured polyreactivity (PSR sort gate) goes with `QVQLVESGGGLVQAGGSLRLSCAASGRTFSSYAMGWYIQAPGKERELVAAITRGGGSTYYADSVKGRFTISRDNAKNTVYLQMNSLKPEDTAVYYCAADYGRDYRAFNYWGQGTQVTVSS` ?
# output high polyreactivity

# input Also, `QVQLVESGGGLVQAGGSLRLSCAASGNIFVDNAMGWYRQAPGKERELVAAITFSGDDTYYADSVKGRFTISRDNAKNTVYLQMNSLKPEDTAVYYCNAVPTLYWWYDYWGQGTQVTVSS` please.
# output low polyreactivity

# input Also, `QVQLVESGGGLVQAGGSLRLICAASGLTFWYYAMGWYRQAPGKERELVARITRSGVGTYYADSVKGRFTISRDNAKHTVYLQMNSLKPEDTAVYYCNARYQYSWVRYGYDYWGQGTQVTVSS` please.
# output high polyreactivity

* * *

# EXPERIMENT NOTES: yeast display, Sf9 membrane polyspecificity reagent, FACS + sequencing; frameworks hold sequencing errors
EXPERIMENTAL READOUT: polyreactivity (PSR sort gate)

QVQLVESGGGLVHAGGSLRLSCAASGFTFKENAMGWSRPAPGKERELVAAISSTGGSTYYADSVKGRFTISRDNATNNVYLQMHSLNPDDTAVYYCAASTYWYDGDYWGQGTQVTVSS high polyreactivity
QVQLVESGGGLVQAGGSLRLSCAASGSIFGYNARGWYRQAPGKERELVATINWSGTSTYYAASVKGRFTISRDNAKNTVYLQMNSLKPVDTAVYYCNAKYLWYGRYNYWGQGTQVTVSS high polyreactivity
QVQLVESGGGLVQARGSLRLSCAASGSTFPYVMGWYRQAPWKERELVAAISQRTGSTYYADSVKGRFTISRDNAKNTVYLQMNSLNPEDTAVYYCAKPGYLRPSRYDYWGQGTQVTVSS high polyreactivity

* * *

# EXPERIMENT NOTES: yeast display, Sf9 membrane polyspecificity reagent, FACS + sequencing; frameworks hold sequencing errors
EXPERIMENTAL READOUT: polyreactivity (PSR sort gate)

QVQLVESGGGLVQAGGSLRLSCAASGRIFSFYTMGWYRQAPGKERELVAAISSGGRTYYADSVKGRFTISRDNEKNTVYLQMNSLKPEDTAVYYCAAGSHYAFYYWGQGTQVTVSS high polyreactivity
QVQLVESGGCLVQAGGSLRLSCAASGSIFVAYAMGWYRQAPGKERELVAAITGRSGRTYYADSVKGRFTISRDNAKNTVYLQMNSLKPEDTAVYYCAARGYGTDDYDYCGQGTQVTVSS high polyreactivity
QVPLVESGGGLVQAGGILRISCAATGSSFRFKAMGWYRQAPGQERELVAAISRRGSSTYYADSVKGRCTISRDNAKNRVYLQMNSLKAEDTAVYYCAASGGYRPHRYQIGDYDNWGQGTQVTLSS high polyreactivity

* * *

# EXPERIMENT NOTES: yeast display, Sf9 membrane polyspecificity reagent, FACS + sequencing; frameworks hold sequencing errors
EXPERIMENTAL READOUT: polyreactivity (PSR sort gate)

QVQLVESGGGLVQAGGSLRLSCAASGFIFRHYAMGWYRQAPGKERELVAGINTSGGSTHYADSVKGRFTISRDNAKNTVYLQMNSLKPEDTAVYYCAADVYRYYAGSRYYYWGQGSQVTVSS low polyreactivity
QVQLVESGGGLVQAGGSLRLSCAASGLTFYRYAMGWYRQAPGKERELVAAISSSGGSTYYADSVKGRFTISRDNAKNTVYLQMNSLKPEDTAVYYCAAKRVSVPYGYWGQGTQVTVSS high polyreactivity
QVQLVESGGGLVQAGGSLRLSCAASGSTFAGNGMGWYRQAPGKERELVAGIDVTGGSTYYADSVKGRFTSSRDNAKNTVYLQMNSLKPEDTAVYYCNARYVYHSSFAGFDYWGQGTQVTVSS low polyreactivity
QVQLVESGGGLVQAGGSLRLSCAASGFTFGYYAMGWYRQAPGKERELVATIDRGGGTSYADSVKGRFTISRDNAKNTVYLQMNSLKPEDTAVYYCAAVRQGYVAYYYWGQGTQVTVSS high polyreactivity

Next sequence, polyreactivity (PSR sort gate) to be filled in.
# input What measured polyreactivity (PSR sort gate) goes with `QVQLVESGGGLVQAGGSLRLSCAASGSIFQSNAMGWYRQAPGKEREFVAAITASGGRTYYADSVKGRFTISRDNAKNTDYLLMNSLKPEDTAVYFCAARGRYYWGGRSYDYWGHGTQVTVSS` ?
# output high polyreactivity

* * *

# EXPERIMENT NOTES: yeast display, Sf9 membrane polyspecificity reagent, FACS + sequencing; frameworks hold sequencing errors
EXPERIMENTAL READOUT: polyreactivity (PSR sort gate)

Below are worked cases with known answers.
QVQLVESGGGLVQAGGSLRLSCAASGGIFDRYAMGWSRQAPGKERELVAVISGSVNTYADSVKGRFTISRDNAKNTFYLQMNSLKPEDTAVYYCATQFEGTSGFNYWGQGTQVTVSS low polyreactivity
QVQLLESGGGLVQARGSLRLICAASGRIFTDNAMGWYIQAPGKERELVATISKRGGRTYYADSVKGRFTISRDNAKNTVYLQMNSLKPEDTAVYYCNARPYWIDGSGLFPYDYWGQGTQVTVSS high polyreactivity
QVQLVESGGGLVQAGGSLRLSCAASGRTFQFYTMGWYRQAPGKERELVAVITVSSAATFYADTVKGRFTISRDNAKNTVSLQMNSLKPEDTAVYYCAAGLVLIVGMDSWGQGTQVTVSS low polyreactivity
QVQLVESGGGLVQAGGSLSLSCAASGRSFFNYAMGWYRQAPGKERELVAAISFSDGSTYYADSVKGRFTISRDNAKNTVYLQMNSLKPEDTAVYYCAAEPDYVYYRSDQALFDYWGQGTQVTVSS high polyreactivity
QVQLVESGGGLVQAGGRLRLSCAASGSTFYSNAMGWYRQAPGKERELVASIRFSGVITTYADSVKGRFTISRDNAKNTVYLQMNSLKPEDTAVYYCDAGYLSTTAYDYWGQGTQVTVSS low polyreactivity

# input What measured polyreactivity (PSR sort gate) goes with `QVQHVESGGGLVHAGGSLRLSCAASGSTFRPYPRGWSRQAPGKERELVAAIRKIGGRTYYADSVKGRFTISRDNAKNTVYLQMNSLKPEDTAVYYCNKRIGGGVHAYNYWGQGTQVTVSS` ?
# output low polyreactivity

# input Also, `QVQLVVSGGGLVQAGGSLRLSCAASGIIFVQYTMGWYRQAPGQERELDAAITRGGNTYYADSVKGRFTISRDNAKNTVYLQMNSLKPEATAVYYCNKAYWYANLRYRTGVKLQFYYWGQGTQVNVSS` please.
# output high polyreactivity

# input Also, `QVQLVESGGGLVQAGGSLRLSCAASGRTFAVYAMGWYRQAPGKERELVAAITRSGGSTYYADSVKGRFTISRDNAKNTVYLQMNSLKPEDTAVYYCAAGGQARHDYWGQGTQVTVSS` please.
# output low polyreactivity

# input Also, `QVQLVESGGGLVQAGGSLRLSCAASGRTFVSYAMGWYRQAPGKERELVATITGSTGGTYYADSVKGRFTISRDNAKNTVYLQMNSLKPEDTAVYYCAADRTTYTYYLPYDYWGQGTQVTVSS` please.
# output low polyreactivity

# input Also, `QVQLVESGGGLVQAGGSLRLSCAASGINFGKYAMGWYRQAPGKERELVAAITSGDSTYYADSVKGRFTISRDNAKNTVYLQMNSLKPEDTAVYYCNADAWRSQSWWHGLMEYWGQGTQVTVSS` please.
# output low polyreactivity

# input Also, `QVQLVESGGGLVQAGGSLRLSCAASGSTFAKYAMGWYRQAPGKERELVAVISWGGGSTYYADSVKGRFTISRDNAKNTVYLQMNSLKPEDTAVYYCAAVYDEYQTTHEYDYWGQGTQVTVSS` please.
# output low polyreactivity

# input Also, `QVQLVESGGGLVQAGGSLRLSCAASGYTFLYYAMGWYRQAPGKEREFVAAISRSGGSTYYADSVKGRFTISRDNAKNTVYLQMNSLKPEDTAVYYCAARFRYQHQRGDYWGQGTQVTVSS` please.
# output high polyreactivity

# input Also, `QVQLVESGGGLVQAGGSLRLSCAASGFTFRAYAMGWYRQAPGKERELVAAISSGGGRTYYADSVKGRFTISRDNAKNTVYLQMNSLKPEDTAVYYCAADNYPGTRYDYWGQGTQVTVSS` please.
# output high polyreactivity

# input Also, `QVQLVESGGGLVQAGGSLRLSCAASGSIFGGYAMGWYRQAPGKERELVAAITSSGGRTYYADSVKGRFTISRDNAKNTVDLQMNSLKPEDTAVYYCAASPNYYYYYPMYYWGQGTQVTVSS` please.
# output high polyreactivity

# input Also, `QVQLVESGGGLVQAGGSLRLSCAASGSTFWFYAMGWYRQAPGKERELVAVISNYGSTYYADSVKGRFTISRDNAKNTVYLQMNSLITEDTAVYSCNKDGGGDSYWYDYWGQGTQVTVSS` please.
# output low polyreactivity

# input Also, `QVQLVESGGGLVQAGGSLRLSCAASGRIFARYAMGWYRQAPGKERELVAAITKSVGSTYYADSVKGRFTISRDNAKNTVYLQMNSLKPEDTAVYYCNAVARGYGYDYWGQGTQVTVSS` please.
# output high polyreactivity

# input Also, `QVQLVESGGGLVQAGGILRLSCAASGSIFDVYAMGWYRQAPGKERELVAAISRSGGRTYYADSVKGRFTISRDNAKNRVYLQMNSLKPEDTAVYYCATYPCNWDLDYWGHGTQVTVSS` please.
# output high polyreactivity

# input Also, `QVQLVESGGGVVQAGGSLRLSCAASGRTFRRNAMGWYRQAPGKERELVAAITSSGGSTYYADSVKGRFTISRDNAKNTVYFQMNSLKPEDTEVYYCNAFYTGRSAPDSWGQGTQVTVSS` please.
# output high polyreactivity

# input Also, `QVQLVESGGGLVQAGGSLRLSCAASGSIFPWNTMGWYRQAPGKERELVARISTSGASTYYADSVKGRFTISRDNAKYTVYLQMNSLKQEDTAVYFCAKVRHYGGRSWWYYYWGQGTQVTVSS` please.
# output high polyreactivity

# input Also, `QVQLVESGGGLVQSGGSLRLTCAASGFIFHKYVMGWYSPAPGKEREMVAAISRSGASTYYADSVKGRFTISRDNAKNTVYLQMNSLKPEDTAVYYCAKDYQTYSGSSDFDYWGQGSQVTVSS` please.
# output high polyreactivity

# input Also, `QVQLVESGGGLVQAGCSLRLICAASRSTFTDNAMGWYRQAPGKESELVAAISTGTSTYADSVKGRFTISRDNATNTVYLQMNRLKPEDTAGYYCAADVGIRPLNYHPYNYWGQGTQVTVSS` please.
# output low polyreactivity
